Biological target: T1, biotinylated human ST2-Fc (human, UniProt Q01638 19-331, biotinylated)
T1 construct: also called ST2-Fc fusion protein; not shown: human antibody Fc domain
T1 sequence: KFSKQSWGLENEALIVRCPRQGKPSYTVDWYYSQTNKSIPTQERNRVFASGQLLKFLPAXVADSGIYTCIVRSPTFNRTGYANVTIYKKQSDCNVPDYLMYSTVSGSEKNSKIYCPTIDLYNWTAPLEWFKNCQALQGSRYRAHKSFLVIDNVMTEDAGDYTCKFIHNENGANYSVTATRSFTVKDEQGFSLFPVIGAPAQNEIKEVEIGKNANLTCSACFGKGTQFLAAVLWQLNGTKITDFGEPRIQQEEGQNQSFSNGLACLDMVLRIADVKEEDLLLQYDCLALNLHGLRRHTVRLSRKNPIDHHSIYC
Test: AlphaScreen, IL-33 mediated association of biotinylated human ST2-Fc with human AcP-FH, antibody at 12.5 ug/ml
property label: % inhib ST2-AcP AS 12.5 ug/ml (%)
Respond numerically; units are % and should not be typed.

Would you kindly share the measured % inhib ST2-AcP AS 12.5 ug/ml for Ab3 (antibody, human IgG2, kappa, V domains shown, fully human anti-ST2 antibody) VH: EVQLVESGGGLVQPGGSLRLSCAASGFTFSTYDMHWIRQAPGKNLEWVSAIDLAGDTYYPGSVKGRFTISREDAKNSLYLQMNSLRAGDTAVYYCARGGDGYNYDYYGIDVWGQGTTVTVSS VL: DIVMTQSPLSLPVTPGEPASISCRSSQSLLHSDGYHYLDWYLQKPGQSPQLLIYLGSNRASGVPDRFTGSGSGTDFTLKISRVEAEDVGVYYCMQALQILTFGGGTKVEIKR ?
68.7

Param item = Ab6 (antibody, human IgG2, kappa, V domains shown, fully human anti-ST2 antibody) VH: EVQLVESGGGLVQPGGSLRLSCAASGFTFSTYDMHWVRQTTGKGLEWVSAIDLAGDTYYPGSVKGRFTISREDAKNSLYLQMNSLRAGDTAVYYCARGGDGYNYDYYGIDVWGQGTTVTVSS VL: DIVMTQSPLSLPVTPGEPASISCRSSQSLLHSDGYHYLDWYLQKPGQSPQLLIYLGSNRASGVPDRFSGSGSGTDFTLNISRVEAEDVGVYYCMQALQTLTFGGGTKVEIKR ; retrieve measured % inhib ST2-AcP AS 12.5 ug/ml.
71.2

Item under review: Ab4 (antibody, human IgG2, kappa, V domains shown, fully human anti-ST2 antibody) VH: QVQLVQSGAEVKKPGASVKVSCEVSGFILTELSVNWVRQAPGKGLEWMGGFDPEDGKTIYAQKFQGRVTLTEDTSTDTAYMELSSLRSEDTAVYYCATWWDFHFDFWGQGTLVTVSS VL: DFVMTQTPLSLSVTPGQPASISCKSSQSLLHSNGKTYLYWFLQKPGQPPQLLIYEVSNRFSGVPDRFSGSGSGTDFTLKISRVEAEDVGVYYCMQSIQLPLTFGGGTKVEIKR . Reported % inhib ST2-AcP AS 12.5 ug/ml?
77.8

Which measured % inhib ST2-AcP AS 12.5 ug/ml value corresponds to Ab7 (antibody, human IgG2, kappa, V domains shown, fully human anti-ST2 antibody) VH: EVQLVESGGGLVQPGGSLRLSCAASGFTFSTYDMHWVRQTTGKGLEWVSAIDLAGDTYYPGSVKGRFTISREDAKNSLYLQMNSLRAGDTAVYYCARGGDGYNYDYYGIDVWGQGTTVTVSS VL: DIVMTQSPLSLPVTPGEPASISCRSSQSLLHSDGYHYLDWYLQKPGQSPQLLIYLGSNRASGVPDRFSGSGSGTDFTLNISRVEAEDVGVYYCMQALQTLTFGGGTKVEIKR ?
75.7
